target: D(2) dopamine receptor (Homo sapiens); experiment: Dopamine D2 receptor (DRD2) small molecule antagonists, cell-based qHTS assay (AID 1963595); conditions: HEK293-DRD2 cAMP HTRF antagonist mode; series mostly up to 92.4 µM
Records with an inconclusive call do not appear. Activity calls are given as the source filed them. Calls follow the shape of the dose curve; as a rule, active = well fitted inhibition curve with a large enough effect in the signal ratio in the repeat runs, with a control signal flat; inconclusive = weak or mixed curves, or effect the other way; inactive = flat fitted curve, though single readings scatter; the % refers to the signal ratio.
Quantity kind: activity change, negative = inhibition

Sample records with activity change, negative = inhibition:
1. Cc1ccc2ccccc2c1[N+](=O)[O-] :: inactive
2. CCN(CC)S(=O)(=O)c1ccc(C(=O)O)cc1 :: inactive
3. CC1(C)[C@@H]2CC[C@]3(C2)[C@@H]1C(=O)CCC3(C)C :: inactive
4. Cc1cccc2c1ccc1ccccc12 :: inactive
5. COS(C)(=O)=O :: inactive
6. CC1CNCC(C)O1 (stereo not drawn) :: inactive
7. COC(/C=C(\C)CCC=C(C)C)OC :: inactive
8. CO[Si](CCCCl)(OC)OC :: inactive

Give activity change, negative = inhibition for each of the items listed below.
1. CCCCC(CC)COC(=O)CCCCCCCC(=O)OCC(CC)CCCC (stereo not drawn)
2. CN(C)C(=S)SC(=S)N(C)C
3. CO[C@@]1(NC(=O)C(C(=O)O)c2ccc(O)cc2)C(=O)N2C(C(=O)O)=C(CSc3nnnn3C)CO[C@@H]21 (stereo partly drawn)

Response:
inactive
inactive
inactive

Would you mind giving activity change, negative = inhibition for every molecule in the list below?
1. Clc1cccc(Cl)c1NC1=NCCN1
2. c1ccc(Nc2cccc3ccccc23)cc1

Response:
1. inactive
2. inactive
